All values here come from patent US20130136794A1.

Tested on: Bel-7402 cells
TEST_NAME: EC50 on proliferation of Bel7402 cells (SRB, 48 h)
Type: cell-based
STUDY_CONDITIONS: Homo sapiens, read-out: Bel7402 EC50 (nmol)
MEASURED_PROPERTY: EC50 (nM)

For orientation, consider the following solved cases.
COc1cncc(CNC(=S)SCCC#N)c1 | 10.3
N#CCCSC(=S)Nc1cccnc1 [Compound 30, 2-cyanoethyl pyridin-3-yldithiocarbamate] | 286
Cc1c(CNC(=S)SCCC#N)cnn1-c1ccccc1 | 24.9
N#CCCSC(=S)NCc1ccncc1 | 10.5
Cc1cc(CNC(=S)SCCC#N)n(C)n1 | 4.26

(I) N#CCCSC(=S)NCc1ccc[nH]1
(II) N#CCCSC(=S)NCc1ccc(-c2ccco2)nc1
(III) N#CCCSC(=S)NCc1cnc2ccccc2c1
(IV) CCCCOC(=O)CCSC(=S)NCc1cccnc1
Query block: Order these by EC50, descending, and give the full ranking. A ranking is expressed here by listing the labels in the requested order.
Result block: III, I, II, IV

(P) N#CCCSC(=S)NCCc1cccnc1
(Q) N#CCCSC(=S)NCc1nccs1
Query block: Field: lower recorded EC50 (choose P or Q ) Give the label of your selection.
Result block: P

(1) Cc1cc(C)c(CNC(=S)SCCC#N)cn1
(2) CN(Cc1cccnc1)C(=S)SCCC#N
Query block: Which is greater in EC50, the first item 1 or the second item 2 ? Give the label of your selection.
Result block: 1
